Provenance of the data: paper PMC7587356

Entries and their Replicate_2
# TARGET DESC: SARS-CoV-2 3CLpro (Severe acute respiratory syndrome coronavirus 2, UniProt P0DTD1)
# METHOD: biochemical
# Format: biochemical
# Parameters: unit not given here
# CONDITION LABEL: sheet LOPAC_screen_w_protease; LOPAC1280 primary screen at 5 µM, with protease; replicate 2
Number only, please.

- MOLECULE: "Nc1ncnc2c1ncn2C1CCCO1 (stereo not drawn) [SQ 22536]"
  NUMERIC READOUT: -3.012
- MOLECULE: "Cl.OC1CCCCC1N1CCC(c2ccccc2)CC1 (racemic) [(±)-Vesamicol hydrochloride]"
  NUMERIC READOUT: -0.05902
- MOLECULE: "Nc1ncnc2c1nc(Sc1ccc(Cl)cc1)n2C1OC2COP(=O)(O)OC2C1O (stereo in doubt) [8-(4-Chlorophenylthio)-cAMP sodium]"
  NUMERIC READOUT: 0.2195

State its Replicate_2 on SARS-CoV-2 3CLpro (Severe acute respiratory syndrome coronavirus 2, UniProt P0DTD1): COC(=O)c1c(-c2cc(OC)c(OC)c(OC)c2)c2ccnc(OCc3ncccn3)c2c(=O)n1Cc1ccnc(C)c1 [T-0156]
0.2248

Form field - read-out: Replicate_2; system: SARS-CoV-2 3CLpro (Severe acute respiratory syndrome coronavirus 2, UniProt P0DTD1); submitted item: CCS(=O)(=O)Nc1cccc(C(=C2CCCCC2)c2c[nH]cn2)c1 [A-315456]
0.3687

Lab note: need Replicate_2 with SARS-CoV-2 3CLpro (Severe acute respiratory syndrome coronavirus 2, UniProt P0DTD1) for entry N[C@H](C(=O)O)c1cc(O)no1 (racemic) [(±)-Ibotenic acid] , please look it up.
0.4611

====

# TARGET DESC: UniProt P0DTD1
# METHOD: biochemical
# Format: biochemical
# Design: unit not given here
MEASURE: Replicate_1
Would you mind answering with just the numeric figure?

- COMPOUND: "CCN(CC)CC.Nc1ncnc2c1ncn2C1OC2COP(O)(=S)O[C@@H]2[C@@H]1O (some centres unmarked)"
  Replicate_1: 2.931
- COMPOUND: "CCCN(CCC)C(=O)Cc1c(-c2ccc(Cl)cc2)nc2c(Cl)cc(Cl)cn12"
  Replicate_1: 2.062
- COMPOUND: "NC1CCN(O)C1=O (racemic) [(±)-HA-966]"
  Replicate_1: 0.2172
- COMPOUND: "COc1ccc2c(c1)[C@@]13CCCC[C@H]1[C@@H](C2)NCC3.Cl [3-Methoxy-morphanin hydrochloride]"
  Replicate_1: 3.105

Quick one: Replicate_1 of Cl.O=C(O)C1=CCCN(CCON=C(c2ccccc2)c2ccccc2)C1 [NO-711 hydrochloride] ?
1.057

For "O=C(O)CCC/C=C\C[C@@H]1[C@@H](/C=C/[C@H](O)C2Cc3ccccc3C2)[C@@H](F)C[C@@H]1O" , what is its reported Replicate_1?
0.247

Which Replicate_1 value is on record for CC(C)NCC(O)COc1cccc2ccccc12.Cl (racemic) [(±)-Propranolol hydrochloride] ?
2.83

Would you mind telling me what Replicate_1 value was observed for CC(N)Cc1c[nH]c2ccc(OCc3cccs3)cc12 (centres unmarked) ?
2.832

====

The reader will find reported inhibition at 5 µM values listed item by item below.
# TARGET DESC: SARS-CoV-2 3CLpro (Severe acute respiratory syndrome coronavirus 2, UniProt P0DTD1)
# METHOD: biochemical
# Assay type: biochemical
# CONDITION LABEL: 4 h, LOPAC1280 primary screen with protease, 5 µM compound, replicate 2; read-out: Replicate_2 (LOPAC_screen_w_protease)
Where a name gives a salt, the structure may show the parent alone.
Give just the number in %; leave the unit off.

- COMPOUND: "NNCc1cccc(O)c1 [3-Hydroxybenzylhydrazine dihydrochloride]"
  VALUE UNIT: "%"
  inhibition at 5 µM: 0.839
- COMPOUND: "CN[C@@H]1C[C@@H](c2ccc(Cl)c(Cl)c2)c2ccccc21 [Indatraline hydrochloride]"
  VALUE UNIT: "%"
  inhibition at 5 µM: 2.53
- COMPOUND: "NCCCCCC(=O)O"
  VALUE UNIT: "%"
  inhibition at 5 µM: 1.78
- COMPOUND: "CN(C)CCC=C1c2ccccc2COc2ccccc21 [Doxepin hydrochloride]"
  VALUE UNIT: "%"
  inhibition at 5 µM: 1.88
- COMPOUND: "O=C(O)c1cc(=O)c2ccccc2[nH]1"
  VALUE UNIT: "%"
  inhibition at 5 µM: 0.793
- COMPOUND: "CN1[C@@H]2CC[C@H]1C[C@@H](OC(=O)c1cc(Cl)cc(Cl)c1)C2 [3-Tropanyl-3,5-dichlorobenzoate]"
  VALUE UNIT: "%"
  inhibition at 5 µM: 0.785

Write down the reported inhibition at 5 µM of "Nc1nc2ccc(OC(F)(F)F)cc2s1" , test system: SARS-CoV-2 3CLpro (Severe acute respiratory syndrome coronavirus 2, UniProt P0DTD1).
0.68

Query the reported inhibition at 5 µM for SARS-CoV-2 3CLpro (Severe acute respiratory syndrome coronavirus 2, UniProt P0DTD1); item: CCCN(CCC)CCc1ccc(O)c(O)c1 [Dipropyldopamine hydrobromide]
0.246

Identify the measured inhibition at 5 µM of CCN(CC)CCOCCOC(=O)C1(c2ccccc2)CCCC1 [Carbetapentane citrate] for SARS-CoV-2 3CLpro (Severe acute respiratory syndrome coronavirus 2, UniProt P0DTD1).
1.05
